target: recombinant purified hTau-P301L (human) (UniProt P10636); test: SPR (Biacore T200), antibody held by a capture antibody on a CM5 chip, hTau-P301L as analyte
Sequence (P10636 other isoform, or with tags, fused parts or gaps P301L P301L): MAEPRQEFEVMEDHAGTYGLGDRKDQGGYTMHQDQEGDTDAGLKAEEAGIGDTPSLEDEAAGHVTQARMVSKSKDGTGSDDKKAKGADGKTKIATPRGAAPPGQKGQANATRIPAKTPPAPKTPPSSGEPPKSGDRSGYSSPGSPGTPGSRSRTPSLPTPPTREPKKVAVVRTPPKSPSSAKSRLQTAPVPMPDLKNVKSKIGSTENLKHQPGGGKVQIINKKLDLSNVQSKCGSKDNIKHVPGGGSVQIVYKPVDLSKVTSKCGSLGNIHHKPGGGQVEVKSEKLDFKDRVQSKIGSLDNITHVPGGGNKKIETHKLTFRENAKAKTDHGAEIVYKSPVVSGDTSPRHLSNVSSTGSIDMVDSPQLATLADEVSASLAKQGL
pKd: −log10 of the molar value.
REPORTED ENDPOINT: pKd

# BINDER, QUANTITATIVE READOUT
measured = [
    ("humanized 16B5, version H1L2 (antibody, V domains shown) VH: QVQLVQSGSELKKPGASVKVSCKASGYPFTYHGMDWVRQAPGQGLEWMGWINTYSGVPTYADDFKGRFVFSLDTSVSTAYLQISSLKAEDTAVYFCARRRDFTMDFWGQGTTVTVSS VL: NIVLTQSPDSLAVSLGERATINCKSSQSLLNSRTRKNYLAWFQQKPGQSPKLLIYWASTRESGVPDRFSGSGSGTDFTLTISSLQAEDVAVYYCKQSYTLRTFGGGTKVEIKR", 11.53),
    ("16B5 monoclonal antibody (mouse) (antibody, V domains shown, Mouse monoclonal antibody; The control 6F10 is called an IgG1 isotype control; also called Murine 16B5; pan antibody 16B5) VH: QIQLVQSGPELKKPGETVKISCKASGYPFTYHGMDWVKQAPWGGLEWMGWINTYSGVPTYADDFKGRFAFSLETSVGTAYLQINNLKNEDTATYFCARRRDFTMDFWGQGTSVTVSS VL: NIVLSQSPSSLAVSPGEKVTMSCKSSQSLLNSRTRKNYLAWFQQKPGQSPKLLIYWASTRESGVPDRFTGSGSGTDFTLTISSVQAEDLAVYYCKQSYTLRTFGGGTNLEIKR", 11.63),
    ("humanized 16B5, version H2L4 (antibody, V domains shown) VH: EVQLVQSGSELKKPGASVKVSCKASGYPFTYHGMDWVRQAPGQGLEWMGWINTYSGVPTYADDFKGRFVFSLDTSVSTAYLQISSLKAEDTAVYFCARRRDFTMDFWGQGTTVTVSS VL: NIVLTQSPSSLAVSLGERATINCKSSQSLLNSRTRKNYLAWFQQKPGQSPKLLIYWASTRESGVPDRFSGSGSGTDFTLTISSLQAEDVAVYYCKQSYTLRTFGGGTKVEIKR", 11.40),
    ("humanized 16B5, version H2L2 (antibody, V domains shown) VH: EVQLVQSGSELKKPGASVKVSCKASGYPFTYHGMDWVRQAPGQGLEWMGWINTYSGVPTYADDFKGRFVFSLDTSVSTAYLQISSLKAEDTAVYFCARRRDFTMDFWGQGTTVTVSS VL: NIVLTQSPDSLAVSLGERATINCKSSQSLLNSRTRKNYLAWFQQKPGQSPKLLIYWASTRESGVPDRFSGSGSGTDFTLTISSLQAEDVAVYYCKQSYTLRTFGGGTKVEIKR", 11.54),
]
